target: Thrombin digested soluble HLA-DRB1*15:01 (CLIP0 placeholder construct) (human); assay: FP probe displacement; probe m27
Record form. Attribute: % inhibition of probe binding at 1uM. Fill in for each entry.
# value in %; strip the unit string

Exercise: Entry LLRPGQIVAFDSTAQ (modifications not checked) [M248] : reported % inhibition of probe binding at 1uM = ?
Solution: 6

Exercise: And for PPIDGYPNHPCFEPE (modifications not checked) [M230] ?
Solution: 79

Exercise: And for PQILPYPAPEEAQEN (modifications not checked) [M231] ?
Solution: 50

Exercise: And for ASLRSWPSTWAPWAS (modifications not checked) [M371] ?
Solution: 58

Exercise: And for PQLRQWWAQGADPLA (modifications not checked) [M247] ?
Solution: 50
